- tgt: Left-right determination factor 2 (Homo sapiens) (UniProt O00292)
- Sequence (O00292 whole entry, looked up): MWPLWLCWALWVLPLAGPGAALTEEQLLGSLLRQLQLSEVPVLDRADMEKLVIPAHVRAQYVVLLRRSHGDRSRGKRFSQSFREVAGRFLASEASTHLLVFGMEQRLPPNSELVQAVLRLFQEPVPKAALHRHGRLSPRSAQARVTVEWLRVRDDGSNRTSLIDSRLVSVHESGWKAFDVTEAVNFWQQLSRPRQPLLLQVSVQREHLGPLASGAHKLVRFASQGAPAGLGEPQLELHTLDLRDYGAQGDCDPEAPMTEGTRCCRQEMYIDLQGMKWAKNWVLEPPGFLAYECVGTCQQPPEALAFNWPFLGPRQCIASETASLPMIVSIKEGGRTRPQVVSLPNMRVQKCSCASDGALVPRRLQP
- protocol_details: LEFTY2 binders on small-molecule microarrays, primary screen, biochemical, small-molecule microarray, 635 nm fluorescence scan (AID 1110)
- assay_context: LEFTY2 binding, higher = more signal
As shown below, each of these molecules has a reported composite z-score value.
Please reply with the value in numeric form only.

Worked set:
>>> test_value("CC(=O)NCCCC[C@@H]1NC(=O)[C@H]2C[C@@H](C(=O)NCCCCCN)[C@@H](c3ccc(O)cc3)N2C1=O")
0.777
>>> test_value("COCCOC(=O)N1C(=O)[C@@]2(c3cc(C#CCC(C(=O)OC)C(=O)OC)ccc31)[C@H](C(N)=O)[C@H]1C(=O)O[C@H](c3ccccc3)[C@H](c3ccccc3)N1[C@@H]2c1ccccc1OCCO")
0.584
>>> test_value("CCOC(=O)C1=CCC(c2ccncc2)N(S(=O)(=O)c2ccc(C)cc2)C1 (stereo unspecified)")
0.502

Lookup: Retrieve composite z-score on Left-right determination factor 2 (Homo sapiens) (UniProt O00292); query C=CCOC(=O)[C@@H]1[C@H]2C(=O)O[C@H](c3ccccc3)[C@H](c3ccccc3)N2[C@H](c2ccc(OCCOC(=O)[C@@H]3C[C@@H]4C(=O)N[C@@H](CC(C)C)C(=O)N4[C@@H]3c3ccc(O)cc3)cc2)[C@@]12C(=O)Nc1ccc(I)cc12
Found: 1.26

Lookup: State the measured composite z-score (Left-right determination factor 2 (Homo sapiens) (UniProt O00292)) of COc1ccc(C(O)C2C=CC3C(=O)N(c4ccccc4)C(=O)C3N2Nc2ccccc2F)c2ccccc12 (stereo unspecified)
Found: 0.903

Lookup: Fill: composite z-score (Left-right determination factor 2 (Homo sapiens) (UniProt O00292)) for this molecule CCCCCN1CC=CC23O[C@@H]4/C=C\CCCOC(=O)C4[C@H]2C(=O)N(CCO)[C@@H]3C1=O (stereo partly specified)
Found: -0.155

###

- protocol_details: binders of probe aFGF10 on microarray, primary screen, stem cell growth factor project, biochemical, small-molecule microarray, fluorescence 635/667 (AID 1071);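 also: score merges 667 nm spot intensity and signal to noise from triplicate slides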
- assay_context: higher = more signal
Some compounds, each annotated with its measured composite z-score.

See these solved cases before continuing.
>>> test_value("COc1ccc([Si](C)(C)[C@@H]2[C@@H](CC(=O)N3CCC[C@H]3CO)O[C@]3(C(=O)N(Cc4cccc(N5C(=O)c6cccc7cccc5c67)c4)c4ccccc43)[C@H]2C)cc1")
0.219
>>> test_value("C#CCN(C(=O)OC(C)(C)C)[C@H](CO)c1ccccc1")
0.0182
>>> test_value("C=CCOC(=O)[C@H]1[C@@H]2C(=O)O[C@@H](c3ccccc3)[C@@H](c3ccccc3)N2[C@@H](c2ccc(OCCOC(=O)[C@H]3C[C@H]4C(=O)NCC(=O)N4[C@H]3c3cccc(OCCO)c3)cc2)[C@]12C(=O)Nc1ccc(I)cc12")
0.589
>>> test_value("CCOC(=O)C1=CCC(c2ccncc2)N(S(=O)(=O)c2ccc(C)cc2)C1 (stereo not drawn)")
1.03
>>> test_value("CC(=O)NCCCC[C@@H]1NC(=O)[C@H]2C[C@@H](C(=O)NCCCCCN)[C@@H](c3ccc(O)cc3)N2C1=O")
0.198
>>> test_value("C=C(C(=O)CC[C@@H](OC(=O)c1cccnc1)c1cccc(OCCO)c1)C(C)C")
0.684
>>> test_value("COc1ccc(C(=O)Nc2ccc(CN3C(=O)[C@@]4(O[C@@H](CC(=O)N(CCO)Cc5ccccc5)[C@H]([Si](C)(C)c5ccc(OC)cc5)[C@H]4C)c4ccccc43)cc2)cc1")
0.086
>>> test_value("COC(=O)C(CC#Cc1ccc2c(c1)[C@]1(C(=O)N2)[C@H](C(N)=O)[C@H]2C(=O)O[C@H](c3ccccc3)[C@H](c3ccccc3)N2[C@@H]1c1ccccc1OCCO)C(=O)OC")
0.765

Lookup: Could you please provide reported composite z-score for CC(C)N1C(=O)[C@@]2(Cc3ccccc31)c1ccccc1C(=O)N(Cc1ccccc1)[C@H]2c1ccc(CO)cc1 ? Thanks!
Found: -0.125

Lookup: Provide only the value of recorded composite z-score for O=C1OC[C@@H](c2ccccc2)n2cc(/C=C/c3ccccc3)cc21
Found: -0.162

Lookup: Return value of composite z-score for input COC(=O)[C@@]1(Cc2ccc(F)cc2)[C@H]2c3cc(C(=O)N4CCCC4)n(CCc4c[nH]c5cc(F)ccc45)c3C[C@H]2CN1C(=O)c1ccccc1 , no commentary.
Found: 0.634

Lookup: Give composite z-score for the following compound: O=C1C2C=CC(C(O)C(c3ccccc3)c3ccccc3)N(Nc3ccccc3F)C2C(=O)N1c1ccccc1 (stereo not drawn)
Found: 1.03

Lookup: Quote composite z-score reported for COCCOC(=O)N1C(=O)[C@@]2(c3cc(C#CCC(C(=O)OC)C(=O)OC)ccc31)[C@H](c1ccc(O)cc1)N1[C@H](c3ccccc3)[C@H](c3ccccc3)OC(=O)[C@H]1[C@@H]2C(=O)N1CCc2cc(OC)c(OC)cc2C1 please.
Found: 0.818
